Reported pKi values for a set of compounds
- target of assay: Cathepsin K (Homo sapiens, UniProt P43235)
- Sequence (P43235 whole entry): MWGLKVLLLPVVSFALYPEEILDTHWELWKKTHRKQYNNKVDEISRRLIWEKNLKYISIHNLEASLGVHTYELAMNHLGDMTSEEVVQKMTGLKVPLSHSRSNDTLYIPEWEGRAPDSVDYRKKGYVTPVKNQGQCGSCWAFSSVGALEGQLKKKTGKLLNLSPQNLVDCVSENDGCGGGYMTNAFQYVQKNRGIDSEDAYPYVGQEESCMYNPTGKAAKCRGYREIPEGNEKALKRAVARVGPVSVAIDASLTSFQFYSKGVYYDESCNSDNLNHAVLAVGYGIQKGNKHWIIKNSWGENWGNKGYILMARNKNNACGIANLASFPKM
- measurement notes: Inhibition of human recombinant cathepsin K using Cbz-Leu-Arg-AMC as substrate incubated for 30 mins measured for 20 mins by spectrofluorometrical analysis
pKi: −log10 of the molar value.
measured attribute: pKi

[[record]]
cpd_smiles = "N#CCNC(=O)[C@H](Cc1cccc(-c2ccccc2)c1)NC(=O)c1ccc(-c2ccccc2)cc1"
experimental_result = 7.61

[[record]]
cpd_smiles = "N#C[C@H](COCc1cn(CC(=O)O)nn1)NC(=O)[C@H](Cc1cccc(Br)c1)NC(=O)c1ccc(-c2ccccc2)cc1"
experimental_result = 6.47

[[record]]
cpd_smiles = "N#C[C@H](COCc1cn(CCC(=O)O)nn1)NC(=O)[C@H](Cc1ccccc1)NC(=O)OCc1ccccc1"
experimental_result = 6.43

[[record]]
cpd_smiles = "N#C[C@H](CCOCc1cn(CCC(=O)O)nn1)NC(=O)[C@H](Cc1ccccc1)NC(=O)OCc1ccccc1"
experimental_result = 6.43

[[record]]
cpd_smiles = "N#C[C@H](Cc1cn(CC(=O)O)nn1)NC(=O)[C@H](Cc1cccc(Br)c1)NC(=O)c1ccc(-c2ccccc2)cc1"
experimental_result = 6.27

[[record]]
cpd_smiles = "N#C[C@H](CCOCc1cn(CC(=O)O)nn1)NC(=O)[C@H](Cc1ccccc1)NC(=O)OCc1ccccc1"
experimental_result = 6.24

[[record]]
cpd_smiles = "N#CCNC(=O)[C@H](Cc1cccc(Br)c1)NC(=O)c1ccc(-c2ccccc2)cc1"
experimental_result = 6.03

[[record]]
cpd_smiles = "N#CCNC(=O)[C@H](Cc1ccc2ccccc2c1)NC(=O)c1ccc(-c2ccccc2)cc1"
experimental_result = 5.35

